Origin of measurements: the NIST ThermoML archive (doi:10.1021/je0302304)

Known mass density of a selection of compounds
# Assay: xn = mol fraction of the nth substance listed
# Assay conditions: 288.15 K; 101.32 kPa; Liquid; x1 = 0.55
// note: answer is a bare numeric in kg/m3

In [3]: df
Out[3]:
                                   compound  readout_number
0  COCCOCCOCCOC [2,5,8,11-tetraoxadodecane] + CCO           951.4
1  COCCOCCOCCOCCOC [2,5,8,11,14-pentaoxapentadecane] + CCO           979.9

Consider COCCOCCOC [2,5,8-trioxanonane] + CCO . Its measured mass density is 912

Consider COCCOC [1,2-dimethoxyethane] + CCO . Its measured mass density is 849.8

====

# Assay: refractive index (Na D-line) (dimensionless); xn = mol fraction of the nth substance listed
# Assay conditions: 318.15 K; 101.32 kPa; Liquid; Standard Abbe refractometry; x1 = 0.0125
Known refractive index of a selection of molecules
Give your answer as a number; write no unit.

>>> print(df.to_string())
                                   molecule  readout_number
0  COCCOCCOCCOC [2,5,8,11-tetraoxadodecane] + CCO          1.3533
1      COCCOCCOC [2,5,8-trioxanonane] + CCO          1.3523
2        COCCOC [1,2-dimethoxyethane] + CCO          1.3512

Next molecule, refractive index to be filled in.
Consider COCCOCCOCCOCCOC [2,5,8,11,14-pentaoxapentadecane] + CCO . Its measured refractive index is 1.3545

====

# Assay: refractive index (Na D-line) (dimensionless); xn = mol fraction of the nth substance listed
# Assay conditions: 288.15 K; 101.32 kPa; Liquid; Standard Abbe refractometry; x1 = 0.0165
Known refractive index of a selection of molecules
Give your answer as a number; write no unit.

Here's what some known entries look like.
In [3]: df
Out[3]:
                                   molecule      readout_type  readout_number
0        COCCOC [1,2-dimethoxyethane] + CCO  refractive index          1.3636
1  COCCOCCOCCOC [2,5,8,11-tetraoxadodecane] + CCO  refractive index          1.3664
2  COCCOCCOCCOCCOC [2,5,8,11,14-pentaoxapentadecane] + CCO  refractive index          1.3678

Next molecule, refractive index to be filled in.
Consider COCCOCCOC [2,5,8-trioxanonane] + CCO . Its measured refractive index is 1.365

====

# Assay conditions: 318.15 K; 101.32 kPa; Liquid
# note: boundary value 900 kg/m3 maps to 0 (no); mass density below it maps to 1 (yes)

>>> df
   structure_string  group_label
0   COCCOCCOCCOCCOC       0 (no)
1      COCCOCCOCCOC       0 (no)

Input line: Strictly below 900 kg/m3: is that where mass density of COCCOC sits?
Output line: 1 (yes)

Input line: Strictly below 900 kg/m3: is that where mass density of CCO sits?
Output line: 1 (yes)

====

# Assay: xn = mol fraction of the nth substance listed
# Assay conditions: 288.15 K; 101.32 kPa; Liquid; x1 = 0.05
Readout type: mass density (kg/m3)
// note: answer is a bare numeric in kg/m3

>>> print(df.to_string())
                                   molecule  readout_type  readout_number
0  COCCOCCOCCOC [2,5,8,11-tetraoxadodecane] + CCO  mass density             823
1      COCCOCCOC [2,5,8-trioxanonane] + CCO  mass density           812.6
2  COCCOCCOCCOCCOC [2,5,8,11,14-pentaoxapentadecane] + CCO  mass density           833.6

Next molecule, mass density to be filled in.
Consider COCCOC [1,2-dimethoxyethane] + CCO . Its measured mass density is 801.3

====

# Assay: refractive index (Na D-line) (dimensionless)
# Assay conditions: 318.15 K; 101.33 kPa; Liquid; Standard Abbe refractometry
Readout type: refractive index
Give your answer as a number; write no unit.

Here's what some known entries look like.
>>> print(df.to_string())
   structure_string  readout_number
0            COCCOC          1.3672
1               CCO          1.3509
2         COCCOCCOC          1.3968
3   COCCOCCOCCOCCOC          1.4221

Next compound, refractive index to be filled in.
Consider COCCOCCOCCOC . Its measured refractive index is 1.4125

====

# Assay: xn = mol fraction of the nth substance listed
# Assay conditions: 308.15 K; 101.32 kPa; Liquid; x1 = 0.2
Readout type: mass density (kg/m3)
// note: answer is a bare numeric in kg/m3

In [3]: df
Out[3]:
                                   molecule  readout_number
0  COCCOCCOCCOCCOC [2,5,8,11,14-pentaoxapentadecane] + CCO           889.1
1  COCCOCCOCCOC [2,5,8,11-tetraoxadodecane] + CCO           864.5
2        COCCOC [1,2-dimethoxyethane] + CCO           801.2

Next molecule, mass density to be filled in.
Consider COCCOCCOC [2,5,8-trioxanonane] + CCO . Its measured mass density is 836.5

====

# Assay: xn = mol fraction of the nth substance listed
# Assay conditions: 288.15 K; 101.32 kPa; Liquid; x1 = 0.0045
Readout type: mass density (kg/m3)
// note: answer is a bare numeric in kg/m3

Here's what some known entries look like.
>>> print(df.to_string())
                                   molecule  readout_number
0        COCCOC [1,2-dimethoxyethane] + CCO           794.5
1  COCCOCCOCCOCCOC [2,5,8,11,14-pentaoxapentadecane] + CCO           797.9
2  COCCOCCOCCOC [2,5,8,11-tetraoxadodecane] + CCO           796.7

Next molecule, mass density to be filled in.
Consider COCCOCCOC [2,5,8-trioxanonane] + CCO . Its measured mass density is 795.6

====

# Assay: refractive index (Na D-line) (dimensionless); xn = mol fraction of the nth substance listed
# Assay conditions: 298.15 K; 101.32 kPa; Liquid; Standard Abbe refractometry; x1 = 0.0205
Readout type: refractive index
Give your answer as a number; write no unit.

Here's what some known entries look like.
                                   molecule      readout_type  readout_number
0      COCCOCCOC [2,5,8-trioxanonane] + CCO  refractive index          1.3615
1  COCCOCCOCCOC [2,5,8,11-tetraoxadodecane] + CCO  refractive index          1.3632
2        COCCOC [1,2-dimethoxyethane] + CCO  refractive index          1.3597

Consider COCCOCCOCCOCCOC [2,5,8,11,14-pentaoxapentadecane] + CCO . Its measured refractive index is 1.3649

====

# Assay: xn = mol fraction of the nth substance listed
# Assay conditions: 308.15 K; 101.32 kPa; Liquid; x1 = 0.35
Readout type: mass density (kg/m3)
// note: answer is a bare numeric in kg/m3

Consider COCCOCCOC [2,5,8-trioxanonane] + CCO . Its measured mass density is 865.5

Consider COCCOC [1,2-dimethoxyethane] + CCO . Its measured mass density is 815

Consider COCCOCCOCCOCCOC [2,5,8,11,14-pentaoxapentadecane] + CCO . Its measured mass density is 929.5

Consider COCCOCCOCCOC [2,5,8,11-tetraoxadodecane] + CCO . Its measured mass density is 901.3

====

# Assay: xn = mol fraction of the nth substance listed
# Assay conditions: 288.15 K; 101.32 kPa; Liquid; x1 = 0.2
± gives the expanded uncertainty stated by the source.
Known mass density of a selection of compounds
The reply should consist of the numeric value with the unit placed after it.

Consider COCCOCCOCCOC [2,5,8,11-tetraoxadodecane] + CCO . Its measured mass density is 882.9 ± 0.3 kg/m3

Consider COCCOCCOCCOCCOC [2,5,8,11,14-pentaoxapentadecane] + CCO . Its measured mass density is 907.3 ± 0.3 kg/m3

Consider COCCOCCOC [2,5,8-trioxanonane] + CCO . Its measured mass density is 855 ± 0.4 kg/m3

Consider COCCOC [1,2-dimethoxyethane] + CCO . Its measured mass density is 819.9 ± 0.4 kg/m3
